Assignment: determine reported Herbicidal activity against VIOTR for the given compounds.
Tested on: Viola tricolor
experiment-description: Post-emergence herbicidal effect
Type: in vivo
details: dosage 320 g a.i./ha, visual score after about 3 weeks
Give bare numbers, in %.

Here's what some known entries look like.
C/C(=N\Oc1ccc(F)cc1)c1cnc(N[C@H]2c3cc(C)ccc3C[C@@H]2C)nc1 [Compound 1.101a]
90
CC/C(=N/O)c1cnc(N[C@H]2c3cc(C)ccc3C[C@@H]2C)nc1CC [Compound 1.40b]
90

Okay, next one:
Form: Entry = CCO/N=C(/C)c1cnc(N[C@H]2c3cc(C)ccc3C[C@@H]2C)nc1 [Compound 1.103b] | System = Viola tricolor | Herbicidal activity against VIOTR = ____
100
